# Test system: SNB-75 CNS
# ASSAY: NCI-60 one-dose screen, 48 h (100 = growth as untreated, 0 = no growth, -100 = all killed)
# SETTINGS: 10 µM unless noted
Compounds without any hit were thinned out: in the full panel of roughly 83,000, 20% have a hit.
EXPERIMENTAL_READOUT: growth (%)

[[record]]
compound = "Cc1ccc(O)cc1Nc1nc(SCCN2CCOCC2)nc2c1cnn2CC(Cl)c1ccc(Br)cc1 (stereo not drawn)"
assay_target = "SNB-75 CNS"
experimental_readout = "growth"
numeric_readout = 4.06

[[record]]
compound = "Fc1cccc(CNc2nc(SCCN3CCOCC3)nc3c2cnn3CC(Cl)c2ccc(Br)cc2)c1 (stereo not drawn)"
assay_target = "SNB-75 CNS"
experimental_readout = "growth"
numeric_readout = 42.3

[[record]]
compound = "Fc1ccccc1CNc1nc(SCCN2CCOCC2)nc2c1cnn2CC(Cl)c1ccc(Br)cc1 (stereo not drawn)"
assay_target = "SNB-75 CNS"
experimental_readout = "growth"
numeric_readout = 50.1

[[record]]
compound = "COc1ccc(C(=O)C[n+]2cccc3c4ccccc4ccc32)cc1"
assay_target = "SNB-75 CNS"
experimental_readout = "growth"
numeric_readout = 82.1

[[record]]
compound = "O=C1c2cccc3c(N4CCN(c5ccccc5)CC4)ccc(c23)C(=O)N1c1cccc(-c2nn(-c3ccccc3)cc2-c2nc3ccccc3s2)c1"
assay_target = "SNB-75 CNS"
experimental_readout = "growth"
numeric_readout = 98.1

[[record]]
compound = "Cc1ccc(Cl)cc1NC(=O)Nc1nc2ccc([N+](=O)[O-])cc2s1"
assay_target = "SNB-75 CNS"
experimental_readout = "growth"
numeric_readout = -26.6

[[record]]
compound = "N/C(=N\\c1nc2ccccc2s1)NC(=O)Nc1ccccc1F"
assay_target = "SNB-75 CNS"
experimental_readout = "growth"
numeric_readout = -0.749

[[record]]
compound = "COc1ccc(N=Nc2c(N)nn3c(N)c(C#N)c(-c4ccc(C)cc4)nc23)cc1"
assay_target = "SNB-75 CNS"
experimental_readout = "growth"
numeric_readout = 22.9

